target: specific IgE contained in the sera of 7 patients allergic to birch and apple; experiment: ELISA inhibition, 7 sera pre-incubated with 1.25 µg/ml inhibitor; competitor: wt Mal d 1 adsorbed on wells
Give mean % inhibition of Mal d 1-IgE binding (7 sera) for every item shown.
Please state the value followed by its unit.

Please review the entries below; each comes with its answer.
| binder | experimental result |
| --- | --- |
| mixture of the two mutagenised allergens (mut Bet v 1-SEQ ID NO:6 and mut Mal d 1-SEQ ID NO:2) (protein) chain 1: HHHHHHGVFNYETETTSVIPAARLFKAFILDGDNLFPKVAPQAISSVENIEGNGGPGTIAKISFPEGFPFKYVKDRVDEVDHTNFKYNYSVIEGGPIGDTLEKISNEIKIVATPDGGSILAINNKYHTAGDHEVKAEQIKASKEMGETLLRAVESYLLAHSDAYN chain 2: HHHHHHGVYTFENEFTSEIPPSRLFKAFVLAADNLIPKIAPQAIKQAEILEGDGGPGTIKKITFGEGSQYGYVKHKIDSVDEAAYSYAYTLIEGDALTDTIEKVSYETKLVASGSGSIIKSISHYHTKGDVEIKEEHVKAGKEKAHGLFKLIESYLKGHPDAYN | 51.6% |
| wild-type Bet v 1-Mal d 1 hybrid molecule (SEQ ID NO: 3) (protein) HHHHHHGVFNYETETTSVIPAARLFKAFILDGDNLFPKVAPQAISSVENIEGNGGPGTIKKISFPEGFPFKYVKDRVDEVDHTNFKYNYSVIEGGPIGDTLEKISNEIKIVATPDGGSILKINNKYHTKGDHEVKAEQIKASKEMGETLLRAVESYLLAHSDAYNEFGVYTFENEFTSEIPPSRLFKAFVLDADNLIPKIAPQAIKQAEILEGDGGPGTIKKITFGEGSQYGYVKHKIDSVDEANYSYAYTLIEGDALTDTIEKVSYETKLVASGSGSIIKSISHYHTKGDVEIKEEHVKAGKEKAHGLFKLIESYLKGHPDAYN | 74.6% |

Moving on to another binder below.
Item under review: mutant Bet v 1-Mal d 1 hybrid molecule (SEQ ID NO: 4) (protein) HHHHHHGVFNYETETTSVIPAARLFKAFILDGDNLFPKVAPQAISSVENIEGNGGPGTIAKISFPEGFPFKYVKDRVDEVDHTNFKYNYSVIEGGPIGDTLEKISNEIKIVATPDGGSILAINNKYHTAGDHEVKAEQIKASKEMGETLLRAVESYLLAHSDAYNEFGVYTFENEFTSEIPPSRLFKAFVLAADNLIPKIAPQAIKQAEILEGDGGPGTIKKITFGEGSQYGYVKHKIDSVDEAAYSYAYTLIEGDALTDTIEKVSYETKLVASGSGSIIKSISHYHTKGDVEIKEEHVKAGKEKAHGLFKLIESYLKGHPDAYN . Reported mean % inhibition of Mal d 1-IgE binding (7 sera)?
63.6%
